Biological target: human HER2 (23-652) (Homo sapiens, UniProt P04626)
Experiment: TR-FRET competition assay for peptide potency, human HER2
Assay type: binding
Parameters: towards human HER2 (23-652) and mouse HER2 (23-653); made in house; host or cells: mammalian cells
Details: huHER2 TR-FRET IC50, TR-FRET competition with Cy5 labeled peptide probe, 0.1 nM human HER2, 24 h incubation
Structures can show the parent of a compound that is named as a salt. Starred links: 1 amine or outer side, 2 acyl side, 3 side chain; linkers in the order of their positions; H or OH if unused. Positions of bridges follow the written chain, without caps; N, C: chain ends. Non-standard residues stand in square brackets, D forms with d. Residues, ends and D or L forms follow the SMILES beside them. Nle(4-yne,6-yl) = O=C([C@H](CC#CC[*:3])N[*:1])[*:2]; Trp(5-OH) = N[C@@H](Cc1c[nH]c2ccc(O)cc12)C(=O)O; NMePhe(4-F) = CN[C@@H](Cc1ccc(F)cc1)C(=O)O; NMehPhe = CN[C@@H](CCc1ccccc1)C(=O)O; Gly(cPr) = N[C@H](C(=O)O)C1CC1; NMeC = CN[C@@H](CS)C(=O)O; NMeS = CN[C@@H](CO)C(=O)O
Result type: pIC50
Please express pIC50 as -log10 of the molar concentration.

### Prompt Any idea what its pIC50 is? The compound is CN1C(=O)[C@H](CO)NC(=O)[C@H](Cc2ccc(O)cc2)NC(=O)[C@@H](N)CC#CCSC[C@@H](C(=O)N(C)[C@@H](Cc2ccc(F)cc2)C(N)=O)N(C)C(=O)[C@H](C2CC2)NC(=O)[C@H](Cc2c[nH]c3ccccc23)NC(=O)[C@H](Cc2c[nH]c3ccc(O)cc23)NC(=O)[C@H](CO)N(C)C(=O)[C@@H]1CCc1ccccc1 [Example A52, TFA salt] (H-[Nle(4-yne,6-yl)]YS[NMehPhe][NMeS][Trp(5-OH)]W[Gly(cPr)][NMeC][NMePhe(4-F)]-NH2; thioether 1-9)
### Response 6.37

---

Biological target: mouse HER2 (23-653) (Mus musculus, UniProt P70424)
Assay: Surface plasmon resonance (SPR) for assessment of peptide affinity, mouse HER2
Format: binding
Parameters: mouse HER2 (23-653) using a Cy5 labeled peptide as a probe; made in house
Conditions: SPR, mouse HER2 extracellular domain, 25° C., 1:1 binding model; read-out: moHER2-SPR-ONC KD
Counter-ions that a name gives are not always drawn. Positions of bridges follow the written chain, without caps; N, C: chain ends. Non-standard residues stand in square brackets, D forms with d. Residues, ends and D or L forms follow the SMILES beside them. Trp(5-OH) = N[C@@H](Cc1c[nH]c2ccc(O)cc12)C(=O)O; NMePhe(4-F) = CN[C@@H](Cc1ccc(F)cc1)C(=O)O; NMehPhe = CN[C@@H](CCc1ccccc1)C(=O)O; NMeAhp(2) = CCCCC[C@H](NC)C(=O)O; Aad = N[C@@H](CCCC(=O)O)C(=O)O; Gly(cPr) = N[C@H](C(=O)O)C1CC1; Ahp(2) = CCCCC[C@H](N)C(=O)O; NMeK = CN[C@@H](CCCCN)C(=O)O; NMeDap = CN[C@@H](CN)C(=O)O
Result type: Kd (nM)
Give just the numeric value; nM need not be written.

### Prompt If you can, please state the reported Kd value of CCCCC[C@H]1C(=O)N(C)[C@@H](CCCCNC(C)=O)C(=O)N[C@@H](Cc2c[nH]c3ccc(O)cc23)C(=O)N[C@@H](Cc2c[nH]c3ccccc23)C(=O)N[C@@H](C2CC2)C(=O)N(C)[C@H](C(=O)N(C)[C@@H](Cc2ccc(F)cc2)C(N)=O)CNC(=O)CCC[C@H](NC(C)=O)C(=O)N[C@@H](Cc2ccc(O)cc2)C(=O)N[C@@H](CO)C(=O)N1C [Example A14] (Ac-[Aad]YS[NMeAhp(2)][NMeK](Ac)[Trp(5-OH)]W[Gly(cPr)][NMeDap][NMePhe(4-F)]-NH2; lactam 1-9) .
### Response 1.2

### Prompt Find the recorded Kd belonging to CC(=O)NCCCC[C@H]1C(=O)N[C@@H](Cc2c[nH]c3ccc(O)cc23)C(=O)N[C@@H](Cc2c[nH]c3ccccc23)C(=O)N[C@@H]([C@H](C)O)C(=O)N(C)[C@H](C(=O)N(C)[C@@H](Cc2ccc(F)cc2)C(=O)N[C@@H](CCCCNC(=O)CN2CCN(CC(=O)O)CCN(CC(=O)O)CCN(CC(=O)O)CC2)C(N)=O)CNC(=O)CC[C@H](NC(C)=O)C(=O)N[C@@H](Cc2ccc(O)cc2)C(=O)N[C@@H](CO)C(=O)N(C)[C@@H](CCc2ccccc2)C(=O)N1C and report it.
### Response 2

### Prompt // lookup Kd for CC(=O)N[C@H]1CCCC(=O)NC[C@@H](C(=O)N(C)[C@@H](Cc2ccc(F)cc2)C(=O)N2CCC[C@H]2C(N)=O)N(C)C(=O)[C@H](C2CC2)NC(=O)[C@H](Cc2c[nH]c3ccccc23)NC(=O)[C@H](Cc2c[nH]c3ccc(O)cc23)NC(=O)[C@H](CO)N(C)C(=O)[C@H](CCc2ccccc2)N(C)C(=O)[C@H](CO)NC(=O)[C@H](Cc2ccc(O)cc2)NC1=O
### Response 8.4

### Prompt Data request, read-out Kd, for CCCCC[C@@H]1NC(=O)[C@H](CCCCNC(C)=O)N(C)C(=O)[C@H](CCc2ccccc2)N(C)C(=O)[C@H](CO)NC(=O)[C@H](Cc2ccc(O)cc2)NC(=O)[C@@H](NC(C)=O)CCCC(=O)NC[C@@H](C(=O)N(C)[C@@H](Cc2ccc(F)cc2)C(N)=O)N(C)C(=O)[C@H](C2CC2)NC(=O)[C@H](Cc2c[nH]c3ccccc23)NC1=O [Example A11] (Ac-[Aad]YS[NMehPhe][NMeK](Ac)[Ahp(2)]W[Gly(cPr)][NMeDap][NMePhe(4-F)]-NH2; lactam 1-9)
### Response 786

### Prompt Request the reported Kd associated with CN1C(=O)[C@H](CO)NC(=O)[C@H](Cc2ccc(O)cc2)NC(=O)[C@@H](N)Cc2cccc(c2)CC(=O)NC[C@@H](C(=O)N(C)[C@@H](Cc2ccc(F)cc2)C(N)=O)N(C)C(=O)[C@H](C2CC2)NC(=O)[C@H](Cc2c[nH]c3ccccc23)NC(=O)[C@H](Cc2c[nH]c3ccc(O)cc23)NC(=O)[C@H](CO)N(C)C(=O)[C@@H]1CCc1ccccc1 [Example A31, TFA salt]
### Response 755

---

Target: mouse HER2 (23-653) (Mus musculus, UniProt P70424)
Assay: TR-FRET competition assay for peptide potency, mouse HER2
Type: binding
Parameters: mouse HER2 (23-653) using a Cy5 labeled peptide as a probe; made in house; host or cells: mammalian cells
Conditions: TR-FRET competition with Cy5 labeled peptide probe, 0.1 nM mouse HER2, 24 h incubation; read-out: moHER2 TR-FRET IC50
Result type: IC50

### Prompt Fill blank: measured IC50 of the molecule COCCOCCOCCOCCOCCOCCOCCOCCOCCOCCOCCOCCC(=O)N[C@H]1CCCC(=O)NC[C@@H](C(=O)N(C)[C@@H](Cc2ccc(F)cc2)C(=O)N[C@@H](CCCCNC(=O)c2ccc(F)nc2)C(N)=O)N(C)C(=O)[C@H](C2CC2)NC(=O)[C@H](Cc2c[nH]c3ccccc23)NC(=O)[C@H](Cc2c[nH]c3ccc(O)cc23)NC(=O)[C@H](CCCCNC(C)=O)N(C)C(=O)[C@H](CCc2ccccc2)N(C)C(=O)[C@H](CO)NC(=O)[C@H](Cc2ccc(O)cc2)NC1=O is ____.
### Response 0.3 nM

### Prompt Name the reported IC50 value associated with the molecule CC(=O)N[C@H]1CCC(=O)NC[C@@H](C(=O)N(C)[C@@H](Cc2ccc(F)cc2)C(N)=O)N(C)C(=O)[C@H](C2CC2)NC(=O)[C@H](Cc2c[nH]c3ccccc23)NC(=O)[C@H](Cc2cnn3ccccc23)NC(=O)[C@H](CO)N(C)C(=O)[C@H](CCc2ccccc2)N(C)C(=O)[C@H](CO)NC(=O)[C@H](Cc2ccc(O)cc2)NC1=O
### Response > 1000 nM

---

So I've got a bunch of compounds here, and I need their IC50 values.
Target: mouse HER2 (23-653) (Mus musculus)
Assay: TR-FRET competition assay for peptide potency, mouse HER2
Assay type: binding
Parameters: mouse HER2 (23-653) using a Cy5 labeled peptide as a probe; made in house; host or cells: mammalian cells
Conditions: TR-FRET competition with Cy5 labeled peptide probe, 0.1 nM mouse HER2, 24 h incubation; read-out: moHER2 TR-FRET IC50
Counter-ions that a name gives are not always drawn. Positions of bridges follow the written chain, without caps; N, C: chain ends. Non-standard residues stand in square brackets, D forms with d. Residues, ends and D or L forms follow the SMILES beside them. Trp(5-OH) = N[C@@H](Cc1c[nH]c2ccc(O)cc12)C(=O)O; NMePhe(4-F) = CN[C@@H](Cc1ccc(F)cc1)C(=O)O; NMehPhe = CN[C@@H](CCc1ccccc1)C(=O)O; Gly(cPr) = N[C@H](C(=O)O)C1CC1; NMehCys = CN[C@@H](CCS)C(=O)O; NMeK = CN[C@@H](CCCCN)C(=O)O
Report only the number, with the unit µM understood.

### Prompt Value lookup for IC50; key = CC(=O)NCCCC[C@H]1C(=O)N[C@@H](Cc2c[nH]c3ccc(O)cc23)C(=O)N[C@@H](Cc2c[nH]c3ccccc23)C(=O)N[C@@H]([C@H](C)O)C(=O)N(C)[C@H](C(=O)N(C)[C@@H](Cc2ccc(F)cc2)C(=O)N[C@@H](CCCCNC(=O)N2CCN(CC(=O)O)CC2)C(=O)N[C@H](CCCCNC(=O)CN2CCN(CC(=O)O)CCN(CC(=O)O)CCN(CC(=O)O)CC2)C(N)=O)CNC(=O)CC[C@H](NC(C)=O)C(=O)N[C@@H](Cc2ccc(O)cc2)C(=O)N[C@@H](CO)C(=O)N(C)[C@@H](CCc2ccccc2)C(=O)N1C [Example C23]
### Response 0.076

### Prompt Quick check: IC50 of CC(=O)NCCCC[C@H]1C(=O)N[C@@H](Cc2c[nH]c3ccc(O)cc23)C(=O)N[C@@H](Cc2c[nH]c3ccccc23)C(=O)N[C@@H](C2CC2)C(=O)N(C)[C@H](C(=O)N(C)[C@@H](Cc2ccc(F)cc2)C(N)=O)CCSSC[C@H](N)C(=O)N[C@@H](Cc2ccc(O)cc2)C(=O)N[C@@H](CO)C(=O)N(C)[C@@H](CCc2ccccc2)C(=O)N1C [Example A56, TFA salt] (H-CYS[NMehPhe][NMeK](Ac)[Trp(5-OH)]W[Gly(cPr)][NMehCys][NMePhe(4-F)]-NH2; disulfide 1-9) ?
### Response 0.755

Cited source: patent US20250332300A1
